biological target: Glucagon-like peptide 1 receptor (Homo sapiens); experiment: Antagonist activity at human GLP-1R expressed in CHO cells assessed as inhibition of GLP-1-stimulated cAMP production preincubated for 30 mins followed by GLP-1 induction measured after 45 mins by LANCE assay
Sequence (P43220 whole entry): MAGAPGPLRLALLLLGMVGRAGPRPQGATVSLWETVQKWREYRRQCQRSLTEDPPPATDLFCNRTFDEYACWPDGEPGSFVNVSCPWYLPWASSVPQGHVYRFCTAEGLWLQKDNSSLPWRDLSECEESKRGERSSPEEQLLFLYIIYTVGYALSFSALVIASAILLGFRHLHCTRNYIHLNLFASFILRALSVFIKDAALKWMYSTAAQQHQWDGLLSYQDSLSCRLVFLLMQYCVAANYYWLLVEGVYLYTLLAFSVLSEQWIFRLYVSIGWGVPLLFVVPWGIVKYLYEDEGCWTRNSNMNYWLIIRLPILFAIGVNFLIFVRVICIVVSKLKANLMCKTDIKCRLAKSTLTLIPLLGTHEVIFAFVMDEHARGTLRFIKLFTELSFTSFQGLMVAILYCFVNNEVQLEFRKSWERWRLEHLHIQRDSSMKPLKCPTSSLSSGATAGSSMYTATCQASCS
experimentalEndpoint: IC50

>>> print(df.to_string())
                             molecularstring                              testedsystem  reportedmeasurement
 0  CC(C)(C)CC[C@H](c1ccc(C(=O)NCCC2=NNNN2)cc1)N1C(=O)C(c2cc(Cl)cc(Cl)c2)=N[C@]12CC[C@@H](C(C)(C)C)CC2  Glucagon-like peptide 1 receptor (Homo sapiens)              > 10 µM
 1  C[C@H](c1ccc(C(=O)NCCC(=O)O)cc1)N1C(=O)C(c2ccc(C(F)(F)F)cc2)=N[C@]12CC[C@@H](C(C)(C)C)CC2  Glucagon-like peptide 1 receptor (Homo sapiens)              > 10 µM
 2  CCC[C@H](c1ccc(C(=O)NCc2nn[nH]n2)cc1)N1C(=O)C(c2cc(Cl)cc(Cl)c2)=N[C@]12CC[C@@H](C(C)(C)C)CC2  Glucagon-like peptide 1 receptor (Homo sapiens)              > 10 µM
 3  CC(C)(C)CC[C@H](c1ccc(C(=O)NCCCC(=O)O)cc1)N1C(=O)C(c2cc(Cl)cc(Cl)c2)=N[C@]12CC[C@@H](C(C)(C)C)CC2  Glucagon-like peptide 1 receptor (Homo sapiens)              > 10 µM
 4  C[C@H](c1ccc(C(=O)NC[C@@H](O)C(=O)O)cc1)N1C(=O)C(c2cc(Cl)cc(Cl)c2)=N[C@]12CC[C@@H](C(C)(C)C)CC2  Glucagon-like peptide 1 receptor (Homo sapiens)              > 10 µM
 5  CC(C)(C)CC[C@H](c1ccc(C(=O)NCc2nn[nH]n2)cc1)N1C(=O)C(c2cccc(F)c2)=N[C@]12CC[C@@H](C(C)(C)C)CC2  Glucagon-like peptide 1 receptor (Homo sapiens)              > 10 µM
 6  CC(C)(C)CC[C@H](c1ccc(C(=O)NCc2nn[nH]n2)cc1)N1C(=O)C(c2cc(Cl)cc(Cl)c2)=N[C@]12CC[C@@H](C)CC2  Glucagon-like peptide 1 receptor (Homo sapiens)              > 10 µM
 7  C[C@H](c1ccc(C(=O)NCCC(=O)O)cc1)N1C(=O)C(c2cc(F)cc(Cl)c2)=N[C@]12CC[C@@H](C(C)(C)C)CC2  Glucagon-like peptide 1 receptor (Homo sapiens)               5.6 µM
 8  CC(C)(C)CC[C@H](c1ccc(C(=O)NCc2nn[nH]n2)cc1)N1C(=O)C(c2cccc(Cl)c2)=N[C@]12CC[C@@H](C(C)(C)C)CC2  Glucagon-like peptide 1 receptor (Homo sapiens)              > 10 µM
 9  C[C@H](c1ccc(C(=O)Nc2nnn[nH]2)cc1)N1C(=O)C(c2cc(Cl)cc(Cl)c2)=N[C@]12CC[C@@H](C(C)(C)C)CC2  Glucagon-like peptide 1 receptor (Homo sapiens)               0.8 µM
10  C[C@H](c1ccc(C(=O)NCCC(=O)O)cc1)N1C(=O)C(c2cccc(Cl)c2)=N[C@]12CC[C@@H](C(C)(C)C)CC2  Glucagon-like peptide 1 receptor (Homo sapiens)               3.9 µM
11  CC(C)(C)CC[C@H](c1ccc(C(=O)NCc2nn[nH]n2)cc1)N1C(=O)C(c2cc(Cl)cc(Cl)c2)=NC12CCCCC2  Glucagon-like peptide 1 receptor (Homo sapiens)              > 10 µM
12  CC(C)(C)CC[C@H](c1ccc(C(=O)NCc2nn[nH]n2)cc1)N1C(=O)C(c2ccc(F)c(F)c2)=N[C@]12CC[C@@H](C(C)(C)C)CC2  Glucagon-like peptide 1 receptor (Homo sapiens)              > 10 µM
